- Measured target: T1, matriptase (Charles Craik, UCSF), recombinant (Homo sapiens (Human), UniProt Q9Y5Y6)
- T1 sequence: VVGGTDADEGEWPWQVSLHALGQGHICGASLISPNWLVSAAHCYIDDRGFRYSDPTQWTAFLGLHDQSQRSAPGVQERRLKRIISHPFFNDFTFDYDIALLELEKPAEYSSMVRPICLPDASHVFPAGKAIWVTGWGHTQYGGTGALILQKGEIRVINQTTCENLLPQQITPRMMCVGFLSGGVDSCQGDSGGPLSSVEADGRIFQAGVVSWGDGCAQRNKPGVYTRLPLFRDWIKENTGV
- Protocol details: fluorogenic inhibition assay
*: point of attachment. kt = C-terminal ketothiazole, c1csc(*)n1
Metric: Ki (nM)
Provide only the numeric value, understood in nM.

Binder: Ac-RQLR-kt (SMILES CC(=O)N[C@@H](CCCNC(=N)N)C(=O)N[C@@H](CCC(N)=O)C(=O)N[C@@H](CC(C)C)C(=O)N[C@@H](CCCNC(=N)N)C(=O)c1nccs1) [Ac-RQLR(SEQ ID NO: 6)-kt]
Units label: nM
Value reported: 0.32

We now examine a further binder.
State the recorded Ki for this entry: Ac-WQLR-kt (SMILES CC(=O)N[C@@H](Cc1c[nH]c2ccccc12)C(=O)N[C@@H](CCC(N)=O)C(=O)N[C@@H](CC(C)C)C(=O)N[C@@H](CCCNC(=N)N)C(=O)c1nccs1) [Ac-WQLR(SEQ ID NO: 3)-kt]
32.4
